Assay: in vitro
Conditions: rat, hepatocytes
Description: Metabolic stability in rat hepatocytes assessed as clearance measured per 10^6 cells at 1 uM incubated for 90 mins by LC-MS/MS analysis
Recorded hepatocyte CLint at 1.5 h, 1 µM, one value per entry.
Respond numerically; units are µL/min/1e6 cells and should not be typed.

>  <moleculeSmiles>
COc1cc(C(=O)NCCCOc2cccc([C@](O)(C(=O)O[C@@H]3CCCN(C)C3)c3ccccc3)c2)c(OC)cc1CNC[C@H](O)c1ccc(O)c2[nH]c(=O)ccc12

>  <numericValue>
61

$$$$
>  <moleculeSmiles>
CN1CCC[C@H](OC(=O)[C@](O)(c2ccccc2)c2cccc(OCCCNC(=O)c3ccc(CNC[C@H](O)c4ccc(O)c5[nH]c(=O)ccc45)cc3)c2)C1.O=CO.O=CO

>  <numericValue>
52

$$$$

(Q) Look up hepatocyte CLint at 1.5 h, 1 µM: CN1CCC[C@@H](OC(=O)[C@](O)(c2ccccc2)c2cccc(OCCCNC(=O)c3ccc(CNC[C@H](O)c4ccc(O)c5[nH]c(=O)ccc45)nc3)c2)C1.O=CO.O=CO
(A) 20

(Q) Look up hepatocyte CLint at 1.5 h, 1 µM: O=C(NCCCOc1cccc([C@](O)(C(=O)OC[C@H]2CCN(Cc3ccccc3)C2)c2ccccc2)c1)c1ccc(CNC[C@H](O)c2ccc(O)c3[nH]c(=O)ccc23)cc1
(A) 38

(Q) Look up hepatocyte CLint at 1.5 h, 1 µM: COc1cc(CNC[C@H](O)c2ccc(O)c3[nH]c(=O)ccc23)c(Cl)cc1C(=O)NCCCOc1cccc([C@](O)(C(=O)O[C@@H]2CCCN(C)C2)c2ccccc2)c1
(A) 66

(Q) Look up hepatocyte CLint at 1.5 h, 1 µM: O=C(c1ccc(CNC[C@H](O)c2ccc(O)c3[nH]c(=O)ccc23)cc1)N1CC(COc2cccc([C@](O)(C(=O)OCC3CCN(Cc4ccccc4)CC3)c3ccccc3)c2)C1
(A) 22
